# study_system: Glucocorticoid receptor (Homo sapiens) (UniProt P04150)
# Sequence (P04150 whole entry, looked up): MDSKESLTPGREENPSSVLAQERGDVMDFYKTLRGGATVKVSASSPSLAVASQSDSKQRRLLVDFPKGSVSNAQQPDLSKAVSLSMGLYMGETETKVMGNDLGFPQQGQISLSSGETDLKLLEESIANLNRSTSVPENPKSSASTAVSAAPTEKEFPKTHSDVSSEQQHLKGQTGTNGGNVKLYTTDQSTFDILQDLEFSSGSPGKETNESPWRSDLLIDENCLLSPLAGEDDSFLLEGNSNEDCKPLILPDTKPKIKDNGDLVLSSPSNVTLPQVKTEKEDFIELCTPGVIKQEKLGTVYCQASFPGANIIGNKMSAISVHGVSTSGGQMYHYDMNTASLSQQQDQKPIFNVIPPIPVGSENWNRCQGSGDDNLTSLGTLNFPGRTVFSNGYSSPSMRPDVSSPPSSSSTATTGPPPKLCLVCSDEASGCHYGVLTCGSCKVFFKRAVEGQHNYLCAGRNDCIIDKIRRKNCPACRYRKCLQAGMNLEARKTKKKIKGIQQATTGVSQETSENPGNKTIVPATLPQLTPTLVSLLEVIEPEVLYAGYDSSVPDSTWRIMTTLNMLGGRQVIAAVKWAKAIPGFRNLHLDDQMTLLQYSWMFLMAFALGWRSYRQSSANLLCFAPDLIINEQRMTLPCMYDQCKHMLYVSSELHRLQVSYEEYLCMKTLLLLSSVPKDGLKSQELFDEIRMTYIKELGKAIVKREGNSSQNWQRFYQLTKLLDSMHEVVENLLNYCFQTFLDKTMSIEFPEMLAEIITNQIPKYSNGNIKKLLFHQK
# assay_overview: GR-GFP Redistribution (AID 450); also: potency is read from the fitted curve at half-maximal effect
# assay_setup: U2OS GR-GFP nuclear translocation, laser cytometry, 2 h
# Method: NIH Molecular Libraries Screening Centers Network [MLSCN] NIH Chemical Genomics Center [NCGC] […] GR-GFP U2OS cells were maintained in DMEM with Glutamax and high glucose, 1% v/v penicillin-streptomycin, and 0.5 mg/mL Geneticin. […] The plates were read by the Acumen Explorer using a 1 x 8 um scan of the whole well area. PI fluorescence triggered the collection of PI and GFP signals. […]
Activity calls are given as the source filed them.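 The calls were made as follows: active = compounds whose dose series gives a full or clear partial fitted curve of increased nuclear translocation; inconclusive = weak partial curve or effect only at the top dose; inactive = no dose-dependent translocation response.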
quantity_name: Potency

* C/C(CC/C(C)=N/O)=N/O | > 46 µM (inactive)
* CC(C)c1ccc(/C(C(=O)O)=C(\O)C(=O)O)cc1 | > 46 µM (inactive)
* Cc1c(S(=O)(=O)O)ccc(N=Nc2c(O)c(C(=O)O)cc3ccccc23)c1Cl | > 46 µM (inactive)
* Cc1ccc2nc(-c3ccc(NC(=O)c4ccc(N)cc4)c(S(=O)(=O)O)c3)sc2c1 | > 46 µM (inactive)
* C[C@@H]1Oc2ccc(C(=O)C[C@@H](C(=O)O)c3ccc4c(c3)OCO4)cc2O1 | > 46 µM (inactive)
* O=C(O)/C=C\C(=O)Nc1cccc2c1-c1ccccc1C2=O | > 46 µM (inactive)
* C/C(=N/O)[C@@H]1C[C@H](CC(=O)O)C1(C)C | > 46 µM (inactive)
* N#CCCn1c(=O)c(-c2ccccc2)nc2cnc(OCc3ccccc3)nc21 | > 9.22 µM (inactive)
* c1cncc(CSc2ncnc3nc[nH]c23)c1 | > 46 µM (inactive)
* NC1=N[C@H](c2ccc(Cl)cc2)N(c2ccc(S(=O)(=O)Nc3ncccn3)cc2)C(N)=N1 | > 46 µM (inactive)
* COc1ccc(-n2c(=O)c(C)nc3cnc(Oc4cccc(Cl)c4)nc32)cc1 | > 9.22 µM (inactive)

====

# assay_overview: qHTS assay for cell viability of the p53RE-bla HCT-116 cell line (AID 743292); also: nearly all actives have a fitted effect of over 55% in size
# assay_setup: p53RE-bla HCT-116 viability, ATP luminescence, 16 h; series mostly up to 95 µM
Records with an inconclusive call do not appear. Calls of active or inactive are those of the source. The call rests on the fitted dose curve; in most records, active means well fitted cell-killing curve with a large enough effect; inconclusive means small, poorly fitted or top-dose-only effect, or effect the other way; inactive means flat fitted curve, though single readings scatter.
Classes used: t = active, f = inactive

* CCCCCCCCOc1ccc(C(=O)O)cc1 | f
* Cc1c(C(=O)O)c(O)cc2c1C(=O)c1c(O)c([C@H]3O[C@H](CO)[C@@H](O)[C@H](O)[C@H]3O)c(O)c(O)c1C2=O | t
* Cc1ccc(O)c(N)c1 | f
* CC1=C(/C=C/C(C)=C/C=C/C(C)=C/C=O)C(C)(C)CCC1 | t
* NC(=O)c1ccc([N+](=O)[O-])cc1 | f
* Cc1ccccc1OCC1CO1 (centres undefined) | f
* CCCCC(CC)COP(=O)(OCC(CC)CCCC)OCC(CC)CCCC (centres undefined) | f
* c1ccc2ncccc2c1 | f
* CC(C)COC(=O)COc1cc(Cl)c(Cl)cc1Cl | f
* O=C(Cl)c1ccc([N+](=O)[O-])cc1 | f
* CCCCNCC | f
* O=CC(=O)c1ccccc1 | f
* O=C(OCc1ccccc1)c1ccccc1O | f
* Oc1ccc2c(c1)OCO2 | f
